// data source = paper PMC12864922

Target Or System: TDP-43 (Homo sapiens, UniProt Q13148 1-414)
Sequence (Q13148 whole entry): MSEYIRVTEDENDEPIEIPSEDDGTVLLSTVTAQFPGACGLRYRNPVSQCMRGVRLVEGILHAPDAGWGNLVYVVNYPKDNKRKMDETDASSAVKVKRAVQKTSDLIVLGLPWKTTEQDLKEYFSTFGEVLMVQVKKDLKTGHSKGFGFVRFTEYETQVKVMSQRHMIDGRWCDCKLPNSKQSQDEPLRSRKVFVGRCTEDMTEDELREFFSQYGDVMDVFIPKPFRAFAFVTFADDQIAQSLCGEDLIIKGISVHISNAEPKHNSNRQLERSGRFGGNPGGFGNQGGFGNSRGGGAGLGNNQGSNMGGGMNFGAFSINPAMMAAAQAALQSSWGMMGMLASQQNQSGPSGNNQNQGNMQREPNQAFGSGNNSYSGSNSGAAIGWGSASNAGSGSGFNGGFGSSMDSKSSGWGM
Experiment Summary: RNA Bind-n-Seq with designed 260-mer pool; 25 mM Tris-HCl, 150 mM KCl, 3 mM MgCl2, BSA (printed 500 mg/mL), 20 units/mL SUPERase IN; pH not stated; 500 nM RNA pool, 1 h, 4 C; TDP-43 5, 50, 500 nM; high values mean tight binding
Measurement Context: protein: recombinant; tags: SBP (GST cleaved off with PreScission; pGEX-GST-SBP)
In all, about 9,900 sequences were measured (“r (bound/input frequency ratio)”: median about 0.7, highest 2% from about 6.5 on). Many of the other results were omitted from the sample, so the highest values are more common in it than they were.
Listed here: items and their measured binding signal.

>  <Binder>
ENSMUSG00000022095.31|Fam160b2|161:165 (ssRNA) RNA: GGGAGUUCUACAGUCCGACGAUCGCUUCGAUAUCCGCAUGCUACUCUGUCCUCCAUGCCGGGGACUUCAGCUGCAGGACACCUCACCUGUUGACCCCACGAGCUGAGGUUUCAAGGAGGUGCUGGCUCCUAAGGCAGUGGUAUUCUUGGAGCCUUUUAGAGGAGCUAGAGGAUGGCCAGUGAGCGCCUAGAUGCUGCCCUGCAACACAUGCGUGACUAUCUCUGCUAUAUUGUGACCAGGGCCACAACAUGAGACAACUCCAGGGGCCAGGGAGAUGAACUGCUGUCUUUGAGGCUGGCUAAACUCUUGCGGUCGCACUAGUGUGGAAUUCUCGGGUGUCAAGG

>  <binding signal>
0.326 R (bound/input frequency ratio)

$$$$

Pending binder:
binding signal for ENSMUSG00000034801.114|Sos2 (ssRNA) RNA: GGGAGUUCUACAGUCCGACGAUCGCUUCGAUAUCCGCAUGCUACCCCAGGUGAUCAGCAGCAUUGCUUCCUCGGCUCCCCAGUGCUGCCCUAGGCCAGUAUAAAGACUCUGUAUUGCACUGUAGACUCUGCUAGCAGACGGCACUGAGAGGAGCCAGCGCUCGAGGGCGUUCUCACGCCUGACUGAUAGAUACCUUUUUAGGGUGAUGAACUUACACAGAUGCAGAAGAUAUGGGGUGGUGGUCCUGGGUUUUAACCCUCUGACCGUCUUCUAGCUUCUAAUUUUGUUUGGUUUUUACAUCUACUCUUGCGGUCGCACUAGUGUGGAAUUCUCGGGUGUCAAGG is 0.44 R (bound/input frequency ratio)
